target or test system: human chorionic gonadotropin (hCG) heterodimer (Homo sapiens, UniProt P01215;P0DN86 P01215:25-116,P0DN86:21-165)
Sequence (P01215 25-116, chain 1 of 2, other chains not shown): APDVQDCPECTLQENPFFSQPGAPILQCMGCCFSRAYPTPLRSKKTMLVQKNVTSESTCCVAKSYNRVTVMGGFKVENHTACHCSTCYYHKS
experimental protocol: filter; SBB buffer
study conditions: tags: Calbiochem or Vitro Diagnostics (14,000 IU/mg); chain copies: alpha/beta heterodimer (stated); label: 32P; hairpin
experimental readout: Kd (nM)

> print(dat)
                                     binder  experimental.readout  value.reported
1  GGGAGUCUCGUUGGUCGUUGAACGAUCCUUCGACAGGAGGCUCA (ssRNA, 2'-F all pyrimidines) [hCG ligand 9TR1]                    Kd             200
